# target-system: Biotinylated CD33 protein (UniProt P20138)
# Sequence (P20138 18-259 limits assumed): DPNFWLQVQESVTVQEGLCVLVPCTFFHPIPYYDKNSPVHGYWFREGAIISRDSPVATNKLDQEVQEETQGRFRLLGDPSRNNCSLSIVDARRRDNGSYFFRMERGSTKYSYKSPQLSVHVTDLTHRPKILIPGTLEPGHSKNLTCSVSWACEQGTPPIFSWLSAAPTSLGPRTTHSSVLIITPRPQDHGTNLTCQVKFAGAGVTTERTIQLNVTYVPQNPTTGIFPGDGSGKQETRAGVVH
# measurement-description: Octet competition on biotinylated CD33; competitor 430
Assignment: determine reported Octet signal for the given binders.
Give bare numbers.

Could I get Octet signal for every one of these entries?
1. sdCD33_6 (VHH, sdAb from a naive llama phage library; also called 416; sdAb416) VHH: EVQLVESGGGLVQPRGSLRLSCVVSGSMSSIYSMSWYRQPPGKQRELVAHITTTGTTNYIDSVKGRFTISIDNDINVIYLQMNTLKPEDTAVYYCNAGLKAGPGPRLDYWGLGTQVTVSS
2. sdCD33_9 (VHH, sdAb from a naive llama phage library; also called 426; sdAb426) VHH: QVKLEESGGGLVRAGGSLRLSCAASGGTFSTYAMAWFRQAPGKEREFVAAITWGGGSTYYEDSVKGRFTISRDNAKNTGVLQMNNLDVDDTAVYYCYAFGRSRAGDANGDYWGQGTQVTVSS

stdout:
1: 0.697; 2: 0.538

Could I get Octet signal for every one of these entries?
1. sdCD33_10 (VHH) VHH: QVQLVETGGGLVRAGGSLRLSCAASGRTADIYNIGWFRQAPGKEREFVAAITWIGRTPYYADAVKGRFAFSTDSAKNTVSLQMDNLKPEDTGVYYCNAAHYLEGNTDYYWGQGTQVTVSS
2. sdCD33_2 (VHH) VHH: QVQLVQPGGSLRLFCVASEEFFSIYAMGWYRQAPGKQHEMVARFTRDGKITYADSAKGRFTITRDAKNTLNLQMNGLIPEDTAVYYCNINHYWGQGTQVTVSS

stdout:
1. 1.44
2. 0.651
